Tested on: HTLV-1 LTR promoter transactivation by HTLV-1 Tax
Assay: Transactivation assay, HTLV-1 LTR luciferase reporter with HTLV-1 Tax
Format: cell-based
Conditions: HEK293 cells co-transfected with pHTLV1LTR-Luc, HTLV-1 Tax and the human ORF; relative luciferase activity 24 h post-transfection; positive if >=2 or <=0.5 and p<0.05
Source text: Twenty-four hours post-transfection, cells were washed three times with PBS, lysed and luciferase activities determined from two independent transfection experiments in triplicate. We computed a paired t-test to assess the difference of the means between samples with and without the human interactor. For a trial to be considered positive, the relative luciferase activities has to be >=2 or <=0.5, and the p-value of the t-test<0.05. […]
measured parameter: HTLV_LTR transactiv.
Remember to put the unit after the number in your answer.

Reference set (2 entries):
INSERT INTO assay_data (molecule, assay_value) VALUES
  ('DAZAP2: human host interactor protein, Gene ID 9802, expressed from transfected ORF vector (protein) MNSKGQYPTQPTYPVQPPGNPVYPQTLHLPQAPPYTDAPPAYSELYRPSFVHPGAATVPTMSAAFPGASLYLPMAQSVAVGPLGSTIPMAYYPVGPIYPPGSTVLVEGGYDAGARFGAGATAGNIPPPPPGCPPNAAQLAVMQGANVLVTQRKGNFFMGGSDGGYTIW', '3.31 fold change'),
  ('C20orf141: human host interactor protein, Gene ID 128653, expressed from transfected ORF vector (protein) MTRLCLPRPEAREDPIPVPPRGLGAGEGSGSPVRPPVSTWGPSWAQLLDSVLWLGALGLTIQAVFSTTGPALLLLLVSFLTFDLLHRPAGHTLPQRKLLTRGQSQGAGEGPGQQEALLLQMGTVSGQLSLQDALLLLLMGLGPLLRACGMPLTLLGLAFCLHPWA', '2.80 fold change');

Hello, please tell me recorded HTLV_LTR transactiv. for this one: SPG21: human host interactor protein, Gene ID 51324, expressed from transfected ORF vector (protein) MGEIKVSPDYNWFRGTVPLKKIIVDDDDSKIWSLYDAGPRSIRCPLIFLPPVSGTADVFFRQILALTGWGYRVIALQYPVYWDHLEFCDGFRKLLDHLQLDKVHLFGASLGGFLAQKFAEYTHKSPRVHSLILCNSFSDTSIFNQTWTANSFWLMPAFMLKKIVLGNFSSGPVDPMMADAIDFMVDRLESLGQSELASRLTLNCQNSYVEPHKIRDIPVTIMDVFDQSALSTEAKEEMYKLYPNARRAHLKTGGNFPYLCRSAEVNLYVQIHLLQFHGTKYAAIDPSMVSAEELEVQKGSLGISQEEQ
0.21 fold change

These measurements were taken from patent US20120090043A1.
